Can you tell me ratio activity, negative = inhibition for the items I'm about to list?
Assay: S16 Schwann cell PMP22 intronic element beta-lactamase assay (AID 624044);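 note: 0% = DMSO and -100% = potassium clavulanate positive control; nearly all actives have a fitted effect of over 15% in size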
Details: S16 rat Schwann cells, PMP22 element beta-lactamase FRET, 24 h; at 38.3 µM (top of the series) unless noted
Inconclusive results are not listed. Calls of active or inactive are those of the source. Calls come from the whole dose curve.

N[C@@H](Cc1cc(I)c(Oc2ccc(O)c(I)c2)c(I)c1)C(=O)O | -3.84% (inactive)

I have 8 compounds here; please give me ratio activity, negative = inhibition for each one.
1. O=P(O)(O)OC[C@H]1O[C@](O)(COP(=O)(O)O)[C@@H](O)[C@@H]1O
2. CCN(CC)CCCC(C)Nc1cc(/C=C/c2ccccc2Cl)nc2cc(Cl)ccc12 (stereo unspecified)
3. CC1CCC(NC(=O)N(CCCl)N=O)CC1 (stereo unspecified)
4. CC(C)(Oc1ccc(C2CCCc3ccccc32)cc1)C(=O)O (stereo unspecified)
5. CCCOc1cc(N)ccc1C(=O)OCCN(CC)CC
6. CCC(C(=O)NC(N)=O)c1ccccc1 (stereo unspecified)
7. COc1ccc2c(=O)c(C)c(-c3ccccc3)oc2c1CN(C)C
8. CCOc1ccc(NC(=S)Nc2ccc(OCC)cc2)cc1

Marked response:
3.08% (inactive)
-1.08% (inactive)
2.89% (inactive)
-0.979% (inactive)
1.14% [at 17.1 µM] (inactive)
8.54% (inactive)
-18.3% (inactive)
-1.68% (inactive)

I have 3 compounds here; please give me ratio activity, negative = inhibition for each one.
1. NC(=S)N=Nc1ccc(NN=C(N)N)cc1
2. NC(=O)Oc1ccc(Cc2ccccc2)cc1
3. CCOC(=O)c1cc(-c2ccccc2)nc2ccc(C)cc12

Marked response:
["-3.68% (inactive)", "-0.76% (inactive)", "4.28% (inactive)"]

I have 5 compounds here; please give me ratio activity, negative = inhibition for each one.
1. NCC(O)CC(=O)O (stereo unspecified)
2. CC(=O)Nc1ccc(OC(=O)c2ccccc2O)cc1
3. O=P(O)(O)O
4. CCC(C)[C@@H](N)C(=O)O (stereo partly specified)
5. CC(=O)N[C@@H]1C(O[C@H]2O[C@H](C(=O)O)C(O)[C@H](O)[C@H]2O)[C@H](O)[C@@H](CO)O[C@H]1O[C@@H]1C(C(=O)O)O[C@@H](O[C@H]2[C@H](O)[C@@H](CO)OC(O)[C@@H]2NC(C)=O)[C@H](O)[C@H]1O (stereo partly specified)

Marked response:
1: 4.25% (inactive); 2: 1.52% (inactive); 3: 2.1% (inactive); 4: 8.55% (inactive); 5: 1.9% (inactive)

I have 4 compounds here; please give me ratio activity, negative = inhibition for each one.
1. C[Si](C)(C)O[Si](C)(C)C
2. CC/C=C\C/C=C\C/C=C\C/C=C\C/C=C\CCCC(=O)O
3. FC(F)(F)COCC(F)(F)F
4. OCc1ccccc1

Marked response:
1. -0.118% (inactive)
2. 1.33% (inactive)
3. -0.887% (inactive)
4. -1.75% (inactive)
